Biological target: Beta-galactosidase (Escherichia coli, UniProt Q8VNN2)
Sequence (Q8VNN2 whole entry): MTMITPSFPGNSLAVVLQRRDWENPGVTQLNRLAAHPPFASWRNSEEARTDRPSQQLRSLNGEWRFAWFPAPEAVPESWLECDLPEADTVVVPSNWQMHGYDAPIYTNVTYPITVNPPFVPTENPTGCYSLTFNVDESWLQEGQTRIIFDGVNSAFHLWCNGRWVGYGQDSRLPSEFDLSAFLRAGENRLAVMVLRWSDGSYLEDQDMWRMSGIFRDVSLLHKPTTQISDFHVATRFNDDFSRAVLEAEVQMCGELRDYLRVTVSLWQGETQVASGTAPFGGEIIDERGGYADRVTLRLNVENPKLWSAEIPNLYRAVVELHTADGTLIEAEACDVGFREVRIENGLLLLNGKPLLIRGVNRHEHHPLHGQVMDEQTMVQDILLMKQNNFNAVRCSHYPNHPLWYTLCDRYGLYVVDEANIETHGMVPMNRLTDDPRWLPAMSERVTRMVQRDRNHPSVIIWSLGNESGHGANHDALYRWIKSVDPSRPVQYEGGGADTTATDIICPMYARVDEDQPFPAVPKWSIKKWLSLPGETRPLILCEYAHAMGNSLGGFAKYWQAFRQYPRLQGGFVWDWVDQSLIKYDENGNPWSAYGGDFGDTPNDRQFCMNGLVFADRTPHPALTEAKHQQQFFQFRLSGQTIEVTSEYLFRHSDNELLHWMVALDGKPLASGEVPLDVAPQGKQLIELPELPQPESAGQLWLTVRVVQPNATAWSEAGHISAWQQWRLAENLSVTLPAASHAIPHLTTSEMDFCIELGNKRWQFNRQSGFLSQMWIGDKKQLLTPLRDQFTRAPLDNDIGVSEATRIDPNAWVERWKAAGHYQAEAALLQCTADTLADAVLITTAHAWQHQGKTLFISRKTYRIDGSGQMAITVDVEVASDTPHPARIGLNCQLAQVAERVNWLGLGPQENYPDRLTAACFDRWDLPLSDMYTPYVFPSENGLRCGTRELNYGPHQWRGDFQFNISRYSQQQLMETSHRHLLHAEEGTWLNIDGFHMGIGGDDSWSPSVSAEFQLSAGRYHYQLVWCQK
Experiment: Compound was evaluated for its binding affinity towards Beta-galactosidase
property: pKi
Scale: pKi equals -log10([C]), with [C] in mol/L.

Inquiry: Which measured pKi belongs to OC[C@H]1OC[C@@H](O)[C@@H]1O , tested on Beta-galactosidase (Escherichia coli, UniProt Q8VNN2)?
Reply text: 1.29

----------
Target: Beta-glucosidase (Prunus avium) (UniProt Q43014)
Sequence (Q43014 as listed by the source): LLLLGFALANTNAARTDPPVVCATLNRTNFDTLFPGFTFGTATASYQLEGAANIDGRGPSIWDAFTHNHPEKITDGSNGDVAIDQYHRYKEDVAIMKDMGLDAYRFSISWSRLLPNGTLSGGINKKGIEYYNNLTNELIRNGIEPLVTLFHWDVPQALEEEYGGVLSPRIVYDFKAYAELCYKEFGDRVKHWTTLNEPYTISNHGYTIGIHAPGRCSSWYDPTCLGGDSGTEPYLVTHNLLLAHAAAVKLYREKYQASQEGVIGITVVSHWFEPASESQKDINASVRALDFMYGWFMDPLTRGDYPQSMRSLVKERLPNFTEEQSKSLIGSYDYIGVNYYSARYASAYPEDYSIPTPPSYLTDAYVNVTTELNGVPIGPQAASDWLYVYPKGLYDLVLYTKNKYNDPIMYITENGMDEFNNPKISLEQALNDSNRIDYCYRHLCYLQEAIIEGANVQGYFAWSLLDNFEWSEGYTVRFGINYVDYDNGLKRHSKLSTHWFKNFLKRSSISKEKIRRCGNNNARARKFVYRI
Experiment: Kinetic parameter Km/Kcat against Beta-glucosidase
Set-up: unit not given here
Conditions: Prunus dulcis
property: Km/Kcat
Number only, no unit.

Inquiry: Return reported Km/Kcat; argument: OC[C@H]1OC[C@H](O)[C@@H](O)[C@@H]1O [1,5-Anhydrosorbitol]
Reply text: 0.21

Inquiry: # get_value(readout='Km/Kcat', item= C[C@H]1OC[C@H](O)[C@@H](O)[C@H]1O )
Reply text: 6.7e-05

Inquiry: # Km/Kcat lookup, item O[C@H]1[C@H](O)COC[C@@H]1O
Reply text: 1

Inquiry: Could you share which Km/Kcat value was measured for O[C@@H]1COC[C@H]1O ?
Reply text: 1
